Exercise: state measured pIC50 for each of the molecules provided.
Target: HDAC-1 (Homo sapiens, UniProt Q13547)
Construct: made in house
Sequence (Q13547 whole entry): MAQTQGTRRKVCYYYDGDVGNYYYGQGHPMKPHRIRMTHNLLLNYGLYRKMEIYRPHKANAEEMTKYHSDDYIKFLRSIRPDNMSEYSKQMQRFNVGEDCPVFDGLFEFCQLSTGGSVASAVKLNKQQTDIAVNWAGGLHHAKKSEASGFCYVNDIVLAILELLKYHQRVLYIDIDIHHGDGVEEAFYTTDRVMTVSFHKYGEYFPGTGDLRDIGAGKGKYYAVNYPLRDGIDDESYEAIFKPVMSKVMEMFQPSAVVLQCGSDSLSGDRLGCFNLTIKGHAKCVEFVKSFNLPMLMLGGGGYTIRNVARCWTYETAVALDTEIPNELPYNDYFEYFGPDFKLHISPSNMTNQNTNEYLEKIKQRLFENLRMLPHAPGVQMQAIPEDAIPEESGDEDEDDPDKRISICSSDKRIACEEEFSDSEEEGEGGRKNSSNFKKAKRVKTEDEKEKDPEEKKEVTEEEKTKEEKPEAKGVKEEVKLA
Test: Deacetylase fluorescence assay (HDAC-1)
Assay type: biochemical
Conditions: read-out: HDAC-1 IC50
Description: Conventional methods are used to express deacetylase enzymes and purify them from lysed cells. The following example describes an exemplary procedure, however equivalent procedures are within the scope of the invention. […] For purification, cells are resuspended in lysis buffer, 12 ml of IPLS for cells collected from 10 500 cm trays. […] Protein concentration of the whole cell lysate is determined (generally in the range of about 2-5 mg/ml). […]
pIC50: −log10 of the molar value.

Per the records, this molecule ( O=C(/C=C/c1ccc2c(c1)CCN(CCc1c[nH]c3ccccc13)C2)NO [Example 68] ) has pIC50 equal to > 7.00

Per the records, this molecule ( O=C(/C=C/c1ccc2c(c1)CN(S(=O)(=O)C1CC1)C2)NO [Example 24] ) has pIC50 equal to 6.00 to 7.00

Per the records, this molecule ( Cn1cc(CCN2CCc3ccc(/C=C/C(=O)NO)cc3C2)c(-c2ccccc2)n1 [Example 46] ) has pIC50 equal to 6.00 to 7.00

Per the records, this molecule ( O=C(/C=C/c1ccc2c(c1)CN(C(=O)c1cccnc1)C2)NO [Example 17] ) has pIC50 equal to 6.00 to 7.00

Per the records, this molecule ( Cc1[nH]c2ccccc2c1CCN1CCCc2cc(/C=C/C(=O)NO)ccc2C1 [Example 41] ) has pIC50 equal to > 7.00

----------
molecular target: HDAC-1 (Homo sapiens); construct: made in house; test: Deacetylase fluorescence assay (HDAC-1); assay type: biochemical; conditions: read-out: HDAC-1 IC50
pIC50: −log10 of the molar value.
metric-name: pIC50

Per the records, this molecule ( `O=C(/C=C/c1ccc2c(c1)CN(S(=O)(=O)c1cccnc1)C2)NO` ) has pIC50 equal to 6.00 to 7.00

Per the records, this molecule ( `Cc1nn(C)c(C)c1CN1CCc2cc(/C=C/C(=O)NO)ccc2C1` ) has pIC50 equal to < 6.00

Per the records, this molecule ( `COc1cccc(C(=O)N2CCc3ccc(/C=C/C(=O)NO)cc3C2)c1` ) has pIC50 equal to 6.00 to 7.00

Per the records, this molecule ( `COc1cccc(S(=O)(=O)N2Cc3ccc(/C=C/C(=O)NO)cc3C2)c1` ) has pIC50 equal to > 7.00

Per the records, this molecule ( `O=C(/C=C/c1ccc2c(c1)CN(CCc1ccnn1-c1ccccc1)CC2)NO` ) has pIC50 equal to 6.00 to 7.00

Per the records, this molecule ( `O=C(/C=C/c1ccc2c(c1)CN(S(=O)(=O)c1cccc(C(F)(F)F)c1)C2)NO` ) has pIC50 equal to 6.00 to 7.00

Per the records, this molecule ( `O=C(/C=C/c1ccc2c(c1)CN(CCC1CCCCC1)CC2)NO` ) has pIC50 equal to 6.00 to 7.00

Per the records, this molecule ( `Cc1ccc(S(=O)(=O)N2Cc3ccc(/C=C/C(=O)NO)cc3C2)cc1` ) has pIC50 equal to > 7.00

Per the records, this molecule ( `O=C(/C=C/c1ccc2c(c1)CCN(S(=O)(=O)c1ccccc1)C2)NO` ) has pIC50 equal to 6.00 to 7.00

----------
Exercise: state measured IC50 for each of the molecules provided.
molecular target: HDAC-1 (Homo sapiens, UniProt Q13547); construct: made in house; test: Deacetylase fluorescence assay (HDAC-1); assay type: biochemical; details: read-out: HDAC-1 IC50

Per the records, this molecule ( `O=C(/C=C/c1ccc2c(c1)CN(C(=O)Cc1ccc(Cl)cc1)CC2)NO` ) has IC50 equal to < 100 nM

Per the records, this molecule ( `COc1ccc(S(=O)(=O)N2CCc3ccc(/C=C/C(=O)NO)cc3C2)cc1` ) has IC50 equal to 100 to 1000 nM

Per the records, this molecule ( `COc1cccc(S(=O)(=O)N2CCc3ccc(/C=C/C(=O)NO)cc3C2)c1` ) has IC50 equal to 100 to 1000 nM

Per the records, this molecule ( `O=C(/C=C/c1ccc2c(c1)CN(Cc1ccccc1)CC2)NO` ) has IC50 equal to 100 to 1000 nM

Per the records, this molecule ( `Cn1cnc(S(=O)(=O)N2Cc3ccc(/C=C/C(=O)NO)cc3C2)c1` ) has IC50 equal to 100 to 1000 nM

Per the records, this molecule ( `O=C(/C=C/c1ccc2c(c1)CCN(Cc1ccccc1)C2)NO` ) has IC50 equal to 100 to 1000 nM

Per the records, this molecule ( `Cc1noc(-c2ccccc2)c1CCN1CCc2cc(/C=C/C(=O)NO)ccc2C1` ) has IC50 equal to < 100 nM

Per the records, this molecule ( `O=C(/C=C/c1ccc2c(c1)CN(CCc1cnn3ccccc13)C2)NO` ) has IC50 equal to < 100 nM

Per the records, this molecule ( `O=C(/C=C/c1ccc2c(c1)CN(S(=O)(=O)Cc1ccccc1)C2)NO` ) has IC50 equal to 100 to 1000 nM

----------
molecular target: HDAC-1 (Homo sapiens); construct: made in house; assay: Deacetylase fluorescence assay (HDAC-1); format: biochemical; settings: read-out: HDAC-1 IC50
pIC50: −log10 of the molar value.
metric-name: pIC50

Per the records, this molecule ( `O=C(/C=C/c1ccc2c(c1)CN(C(=O)C1CCCC1)C2)NO` ) has pIC50 equal to 6.00 to 7.00

Per the records, this molecule ( `O=C(/C=C/c1ccc2c(c1)CN(S(=O)(=O)c1ccc(C(F)(F)F)cc1)C2)NO` ) has pIC50 equal to 6.00 to 7.00

Per the records, this molecule ( `CC(C)(C)c1[nH]c2ncccc2c1CCN1CCc2ccc(/C=C/C(=O)NO)cc2C1` ) has pIC50 equal to > 7.00

Per the records, this molecule ( `CN(C)c1ccc(C(=O)N2CCc3ccc(/C=C/C(=O)NO)cc3C2)cc1` ) has pIC50 equal to > 7.00

Per the records, this molecule ( `CN(C)c1ccc(C(=O)N2CCc3cc(CCC(=O)NO)ccc3C2)cc1` ) has pIC50 equal to 6.00 to 7.00

Per the records, this molecule ( `O=C(/C=C/c1ccc2c(c1)CN(CCc1c[nH]nc1-c1ccccc1)CC2)NO` ) has pIC50 equal to 6.00 to 7.00

Per the records, this molecule ( `CC(C)(C)C(=O)N1Cc2ccc(/C=C/C(=O)NO)cc2C1` ) has pIC50 equal to 6.00 to 7.00

Per the records, this molecule ( `O=C(/C=C/c1ccc2c(c1)CN(CCC1CCCCC1)C2)NO` ) has pIC50 equal to 6.00 to 7.00

Per the records, this molecule ( `COc1cccc(C(=O)N2CCc3cc(/C=C/C(=O)NO)ccc3C2)c1` ) has pIC50 equal to 6.00 to 7.00

----------
Exercise: state measured pIC50 for each of the molecules provided.
biological target: HDAC-1 (Homo sapiens, UniProt Q13547); construct: made in house; assay: Deacetylase fluorescence assay (HDAC-1); assay type: biochemical; conditions: read-out: HDAC-1 IC50
pIC50: −log10 of the molar value.

Per the records, this molecule ( `Cc1[nH]c2ccccc2c1CCN1CCc2ccc(/C=C/C(=O)NO)cc2CC1` ) has pIC50 equal to > 7.00

Per the records, this molecule ( `COc1cccc(C(=O)N2CCc3ccc(CCC(=O)NO)cc3C2)c1` ) has pIC50 equal to 6.00 to 7.00

Per the records, this molecule ( `COc1ccc(S(=O)(=O)N2CCc3cc(/C=C/C(=O)NO)ccc3C2)cc1` ) has pIC50 equal to 6.00 to 7.00

Per the records, this molecule ( `CCc1nn2ccccc2c1CCN1CCc2cc(CCC(=O)NO)ccc2C1` ) has pIC50 equal to 6.00 to 7.00

Per the records, this molecule ( `CC(C)(C)c1[nH]c2ccccc2c1CCN1CCc2cc(/C=C/C(=O)NO)ccc2C1` ) has pIC50 equal to > 7.00

----------
target: HDAC-1 (Homo sapiens); construct: made in house; test: Deacetylase fluorescence assay (HDAC-1); assay type: biochemical; conditions: read-out: HDAC-1 IC50
pIC50: −log10 of the molar value.
metric-name: pIC50

Record `CC(C)(C)c1[nH]c2ccccc2c1CCN1CCc2ccc(/C=C/C(=O)NO)cc2C1` ; system HDAC-1 (Homo sapiens); pIC50 = > 7.00

Record `O=C(/C=C/c1ccc2c(c1)CN(CCc1c[nH]c3ccccc13)CC2)NO` ; system HDAC-1 (Homo sapiens); pIC50 = 6.00 to 7.00

Record `COc1cccc(S(=O)(=O)N2CCc3cc(CCC(=O)NO)ccc3C2)c1` ; system HDAC-1 (Homo sapiens); pIC50 = 6.00 to 7.00

Record `O=C(CCc1ccc2c(c1)CN(CCC1CCCCC1)CC2)NO` ; system HDAC-1 (Homo sapiens); pIC50 = 6.00 to 7.00

Record `O=C(/C=C/c1ccc2c(c1)CN(S(=O)(=O)c1ccncc1)C2)NO` ; system HDAC-1 (Homo sapiens); pIC50 = 6.00 to 7.00

The reported measurements were obtained from patent US20100022514A1.
